- target_system: recombinant hemagglutinin HA1 subunit (rHA, H5) (Influenza A virus A/Vietnam/1203/2004 …, UniProt Q5EP31 17-346)
- assay_info: BLI; rHA immobilized; apparent KD; BLI at 30 C in sodium-potassium phosphate buffer pH 7.4 ([…]
- condition_info: protein: commercial; label: none (rHA); 5'-biotin (vHA BLI); parallel G4, 100% monomer
assay_endpoint: Kd (nM)
Answers are plain numbers, in nM.

The binder identified as TTGGGGTTATTTTGGGAGGGCGGG (structured_DNA) [G7n3t] registered its Kd at 0.4
